- Target Or Test System: kinases (Homo sapiens, UniProt P36888, K663Q)
- Construct: purchased Eurofins/DiscoveRx; host or cells: E. coli BL21-derived host (T7 phage display) for most kinases; HEK-293 for the rest
- Sequence (P36888 27-993 K663Q): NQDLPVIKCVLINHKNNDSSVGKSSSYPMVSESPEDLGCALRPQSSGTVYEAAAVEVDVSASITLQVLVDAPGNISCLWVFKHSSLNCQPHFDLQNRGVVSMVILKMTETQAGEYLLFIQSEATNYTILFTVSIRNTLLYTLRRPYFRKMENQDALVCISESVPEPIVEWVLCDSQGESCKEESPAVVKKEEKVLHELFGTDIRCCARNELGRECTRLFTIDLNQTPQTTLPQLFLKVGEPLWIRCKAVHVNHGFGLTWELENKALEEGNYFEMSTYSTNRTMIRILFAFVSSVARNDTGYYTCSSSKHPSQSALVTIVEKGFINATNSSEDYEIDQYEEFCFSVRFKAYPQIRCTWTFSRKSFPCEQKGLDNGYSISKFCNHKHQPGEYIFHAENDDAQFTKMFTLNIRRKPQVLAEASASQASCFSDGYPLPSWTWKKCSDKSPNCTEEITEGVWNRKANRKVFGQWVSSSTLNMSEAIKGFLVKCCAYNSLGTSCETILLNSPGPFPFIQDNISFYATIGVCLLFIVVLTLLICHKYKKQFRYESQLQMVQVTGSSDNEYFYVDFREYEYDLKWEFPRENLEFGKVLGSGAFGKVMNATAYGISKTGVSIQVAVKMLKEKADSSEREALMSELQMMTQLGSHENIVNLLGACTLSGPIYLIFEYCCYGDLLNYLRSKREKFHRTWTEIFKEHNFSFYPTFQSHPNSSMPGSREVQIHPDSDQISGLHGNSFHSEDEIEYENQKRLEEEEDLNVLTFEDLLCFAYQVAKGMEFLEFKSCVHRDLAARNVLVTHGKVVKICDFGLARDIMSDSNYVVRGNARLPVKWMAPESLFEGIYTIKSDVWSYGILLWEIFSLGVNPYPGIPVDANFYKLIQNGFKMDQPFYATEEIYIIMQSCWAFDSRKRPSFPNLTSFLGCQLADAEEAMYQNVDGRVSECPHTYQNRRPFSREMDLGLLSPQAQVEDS
- Experimental Details: KINOMEscan kinase binding assay (Eurofins/DiscoveRx), % Ctrl
- Conditions: 1 μM; FLT3(K663Q)
Binary classification by % Ctrl, FLT3(K663Q), with 70 % Ctrl as an inclusive lower bound for true; all other cases are false.

>  <Compound>
Cc1cc2c([nH]1)/C=C1\C(=O)Nc3ccc(cc31)-c1ccnn1CCOCCN(C)C2=O [Ex. 41]

>  <Target Or Test System>
kinases (Homo sapiens, UniProt P36888, K663Q)

>  <Label Class>
false

$$$$
>  <Compound>
Cc1cc2c([nH]1)/C=C1\C(=O)Nc3cc(Cl)c(cc31)OCCO[C@@H](C(=O)N[C@@H]1CCNC1)CN(C)C2=O [Ex. 136]

>  <Target Or Test System>
kinases (Homo sapiens, UniProt P36888, K663Q)

>  <Label Class>
false

$$$$
>  <Compound>
Cc1cc2c([nH]1)/C=C1\C(=O)Nc3ccc(cc31)-c1c(noc1C)COCCN(C)C2=O [Ex. 128]

>  <Target Or Test System>
kinases (Homo sapiens, UniProt P36888, K663Q)

>  <Label Class>
true

$$$$
>  <Compound>
CNC(=O)[C@H]1CN(C)C(=O)c2cc(C)[nH]c2/C=C2\C(=O)Nc3cc(Cl)c(cc32)OCCO1 [Ex. 135]

>  <Target Or Test System>
kinases (Homo sapiens, UniProt P36888, K663Q)

>  <Label Class>
false

$$$$
>  <Compound>
Cc1cc2c([nH]1)/C=C1\C(=O)Nc3ccc(nc31)-c1ccccc1OCCCNC2=O [Ex.22]

>  <Target Or Test System>
kinases (Homo sapiens, UniProt P36888, K663Q)

>  <Label Class>
true

$$$$
>  <Compound>
Cc1cc2c([nH]1)/C=C1\C(=O)Nc3cnc(cc31)-c1cnn(C)c1COCCNC2=O [Ex.123]

>  <Target Or Test System>
kinases (Homo sapiens, UniProt P36888, K663Q)

>  <Label Class>
true

$$$$

Values from patent US20230257396A1
